Values were extracted from paper PMC11725774.

Collected GI50 values appear next to each entry.
Test system: TUS/R line 3 (MOLM-14)
assayText: Growth inhibition of TUS-resistant subline
Type: cell-based, human
testParameters: Homo sapiens, MOLM-14, read-out: GI50 (nM) TUS/R line 3; mean ± SEM (Supplementary Table 6)

compound	testedTarget	GI50
Cc1cnc(-c2ccc(-c3ccc(NC(=O)Nc4c(F)cc(F)cc4F)cc3F)c3c2C(=O)NC3)[nH]1 [Luxeptinib]	TUS/R line 3 (MOLM-14)	0.1 nM
CC1(C)CCC(c2ccc(Cl)cc2)=C(CN2CCN(c3ccc(C(=O)NS(=O)(=O)c4ccc(N[C@H](CCN5CCOCC5)CSc5ccccc5)c(S(=O)(=O)C(F)(F)F)c4)cc3)CC2)C1 [Navitoclax, navitoclax]	TUS/R line 3 (MOLM-14)	15.3 nM
COc1cc(Nc2ncc(F)c(Nc3ccc4c(n3)N(COP(=O)(O)O)C(=O)C(C)(C)O4)n2)cc(OC)c1OC [Fostamatinib, fostamatinib]	TUS/R line 3 (MOLM-14)	176 nM
COC1=CC(c2cc3ccccc3[nH]2)=N/C1=C\c1[nH]c(C)cc1C [Obatoclax, obatoclax]	TUS/R line 3 (MOLM-14)	164 nM
Nc1ncn([C@@H]2O[C@H](CO)[C@@H](O)[C@H]2O)c(=O)n1 [5-Azacytidine, 5-azacytidine]	TUS/R line 3 (MOLM-14)	1620 nM

---

Test system: MOLM-14 cells (parental)
assayText: Growth inhibition of AML cell line
Format: cell-based, human
testParameters: Homo sapiens, MOLM-14; growth inhibition, three independent experiments; read-out: IC50 (nmol/L), Mean ± SEM, MOLM-14 parental
readoutType: IC50 (nmol/L)

compound	units	measured
CC1(C)CCC(CN2CCN(c3ccc(C(=O)NS(=O)(=O)c4ccc(NCC5CCOCC5)c([N+](=O)[O-])c4)c(Oc4cnc5[nH]ccc5c4)c3)CC2)=C(c2ccc(Cl)cc2)C1 [Venetoclax, venetoclax]	nmol/L	3020
Cc1ccc2c(-c3nc(Nc4cc(CN5C[C@@H](C)N[C@@H](C)C5)cc(C5CC5)c4)ncc3Cl)c[nH]c2c1 [TUS, Tuspetinib]	nmol/L	2.3

---

testedTarget: JAK1 (Homo sapiens, UniProt P23458)
Sequence (P23458 whole entry): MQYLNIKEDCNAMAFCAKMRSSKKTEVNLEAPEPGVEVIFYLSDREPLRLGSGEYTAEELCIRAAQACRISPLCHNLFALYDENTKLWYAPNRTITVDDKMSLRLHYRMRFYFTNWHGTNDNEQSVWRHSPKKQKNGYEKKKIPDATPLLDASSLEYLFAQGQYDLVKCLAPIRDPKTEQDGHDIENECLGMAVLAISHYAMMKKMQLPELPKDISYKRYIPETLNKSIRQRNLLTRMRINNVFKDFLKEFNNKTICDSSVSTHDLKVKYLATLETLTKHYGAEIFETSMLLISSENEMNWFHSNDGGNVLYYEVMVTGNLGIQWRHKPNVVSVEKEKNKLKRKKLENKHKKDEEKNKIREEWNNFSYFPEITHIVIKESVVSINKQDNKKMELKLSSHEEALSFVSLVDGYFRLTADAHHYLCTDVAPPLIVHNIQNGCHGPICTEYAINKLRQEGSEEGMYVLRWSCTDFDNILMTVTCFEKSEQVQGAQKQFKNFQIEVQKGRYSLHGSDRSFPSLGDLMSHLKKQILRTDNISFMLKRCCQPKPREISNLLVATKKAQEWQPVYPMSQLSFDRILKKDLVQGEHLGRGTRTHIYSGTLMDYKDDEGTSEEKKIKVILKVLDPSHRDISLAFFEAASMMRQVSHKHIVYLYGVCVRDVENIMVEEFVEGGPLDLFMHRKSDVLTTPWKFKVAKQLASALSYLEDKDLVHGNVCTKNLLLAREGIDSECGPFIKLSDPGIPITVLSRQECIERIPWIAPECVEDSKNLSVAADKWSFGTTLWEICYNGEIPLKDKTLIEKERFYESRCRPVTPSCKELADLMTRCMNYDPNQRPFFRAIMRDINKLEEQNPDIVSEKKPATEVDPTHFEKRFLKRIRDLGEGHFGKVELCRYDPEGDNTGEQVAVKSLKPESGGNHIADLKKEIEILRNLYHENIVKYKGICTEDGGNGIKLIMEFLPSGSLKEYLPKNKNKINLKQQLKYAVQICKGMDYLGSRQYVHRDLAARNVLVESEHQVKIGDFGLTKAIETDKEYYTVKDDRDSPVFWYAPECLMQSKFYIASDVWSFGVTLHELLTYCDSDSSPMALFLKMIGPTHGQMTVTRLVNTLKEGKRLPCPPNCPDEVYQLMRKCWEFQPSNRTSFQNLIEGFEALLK
assayText: Broad kinase inhibition screen, recombinant kinase
testParameters: broad kinase inhibition screens
readoutType: IC50 (nM)

> print(dat)
                                  molsmiles  units  measured
1  Cc1ccc2c(-c3nc(Nc4cc(CN5C[C@@H](C)N[C@@H](C)C5)cc(C5CC5)c4)ncc3Cl)c[nH]c2c1     nM       2.9

---

assayText: Pharmacokinetics and tissue distribution in mice
Format: in vivo
testParameters: mouse, plasma; male mice, single intravenous dose of 3 mg/kg; read-out: terminal plasma half-life (converted)
readoutType: half-life (h)

> print(dat)
                                  molsmiles  measured
1  Cc1ccc2c(-c3nc(Nc4cc(CN5C[C@@H](C)N[C@@H](C)C5)cc(C5CC5)c4)ncc3Cl)c[nH]c2c1       5.5

---

Collected pIC50 values appear next to each entry.
Tested on: TUS/R line 2 (MOLM-14)
assayText: Growth inhibition of TUS-resistant subline
Format: cell-based
testParameters: Homo sapiens, MOLM-14, read-out: IC50 (nmol/L), Mean ± SEM, TUS/R line 2
pIC50: −log10 of the molar value.
readoutType: pIC50

compound	measured
Cc1ccc2c(-c3nc(Nc4cc(CN5C[C@@H](C)N[C@@H](C)C5)cc(C5CC5)c4)ncc3Cl)c[nH]c2c1 [TUS, Tuspetinib]	6.92
CC1(C)CCC(CN2CCN(c3ccc(C(=O)NS(=O)(=O)c4ccc(NCC5CCOCC5)c([N+](=O)[O-])c4)c(Oc4cnc5[nH]ccc5c4)c3)CC2)=C(c2ccc(Cl)cc2)C1 [Venetoclax, venetoclax]	8.82
